The values you see were collected from patent US20160185837A1.

Molecular target: T1, mouse GIP receptor (mouse) (UniProt Q0P543)
T1 sequence (looked up): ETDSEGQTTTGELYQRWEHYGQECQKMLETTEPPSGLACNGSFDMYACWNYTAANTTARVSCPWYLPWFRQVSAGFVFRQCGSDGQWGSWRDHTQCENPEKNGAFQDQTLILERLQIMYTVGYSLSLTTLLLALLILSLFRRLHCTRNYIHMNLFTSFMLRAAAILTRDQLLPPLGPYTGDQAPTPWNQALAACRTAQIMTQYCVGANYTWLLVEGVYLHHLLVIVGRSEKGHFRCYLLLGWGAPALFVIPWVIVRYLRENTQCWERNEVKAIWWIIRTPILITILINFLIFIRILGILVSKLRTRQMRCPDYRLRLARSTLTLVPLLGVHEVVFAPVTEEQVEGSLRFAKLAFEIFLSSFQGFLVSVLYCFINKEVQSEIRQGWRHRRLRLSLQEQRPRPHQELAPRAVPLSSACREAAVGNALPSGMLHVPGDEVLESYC
Assay: cell-based or functional assay
parameter: log10 cAMP EC50 (log10 of the value in nM)
For clarity, the numbers are log10 values of cAMP EC50 expressed in nM.

If you can, please state the reported log10 cAMP EC50 value of IP301 (Fc fusion) YSEGTFTSDVSSYLEREAIDEFIAWLLKGGAAAGGSGSTASSGSGSATGGGGAATHTCPPC .
1.34

If you can, please state the reported log10 cAMP EC50 value of IP368 (Fc fusion) YSEGTFTSDYRQAIDRQAIDEFIAWLLKGGGGGGGSGGGGSGGGGSGGGGSACPPC .
0.11

If you can, please state the reported log10 cAMP EC50 value of IP329 (Fc fusion) YSEGTFTSDYSKLLERQAIDEFIAELLKGGGGGGGSGGGGSGGGGSGGGGSGGGGSGGGGSA .
0.41

If you can, please state the reported log10 cAMP EC50 value of IP250 (Fc fusion) YSEGTFTSDVSIAMDRQAIDEFIAWLLKGGAAAGGSGSTASSGSGSATGGGGAATHTCPPCPAPEF .
1.54

If you can, please state the reported log10 cAMP EC50 value of IP275 (Fc fusion) YSEGTFTSDYSKLLEKEAQRLFIEWLLKGPGGGGGSGGGGSGGGGSGGGGSATHTCPPC .
-0.59
